Give measured growth for each item. Keep answers brief.
System: MALME-3M melanoma
Assay: NCI-60 one-dose screen, 48 h (100 = growth as untreated, 0 = no growth, -100 = all killed)
Details: 10 µM unless noted
The panel holds about 83,000 compounds, 20% with a hit somewhere; the sample as a whole holds those more often.
Give bare numbers, in %.

Value sought for every listed compound: growth.
1. COc1ccccc1CNCCCN1C(=O)c2ccc3c4c(ccc(c24)C1=O)C(=O)N(CCCNCCCCN)C3=O
2. COc1ccc(CNC(=O)C(O)C(Cc2ccccc2)NC(=O)c2[nH]c3ccccc3c(=O)c2C)cc1OC (stereo not given)
3. CCN(CCNc1ccc(C)c2sc3ccccc3c(=O)c12)CC(C)(C)O
4. CCN(CC)Cc1cccc(C(=O)OC)c1
5. CC(=O)n1c(-c2ccc(Cl)cc2)nc2c(c1=O)C(c1ccc(Cl)cc1)c1sc3c(Cl)cccc3c1O2 (stereo not given)
6. Clc1cccc(Cl)c1C(Nc1nc2ccccc2s1)Nc1nc2ccccc2s1
7. CCN(CC)CCn1nc2c3c(cccc3c1=O)-c1ccccc1-2

1: -80.7; 2: 111; 3: 89.1; 4: 95.3; 5: 51.8; 6: 123; 7: -9.04

Value sought for every listed compound: growth.
1. COc1cccc(-c2nn(-c3ccccc3)cc2-c2ccnc(NCCCNC(=O)Nc3ccc(Cl)c(Cl)c3)c2)c1
2. Cc1cccc(NC(=O)CSc2nc3ccccc3[nH]2)c1
3. Cn1c(-c2c(N)n(Cc3ccc(C(F)(F)F)cc3)c3nc(C#N)c(C#N)nc23)nc2ccccc21

[-27.1, 105, -23.9]
